Molecular target: T1, SUDV VLP (Sudan virus (SUDV), UniProt Q66814 33-676)
T1 sequence: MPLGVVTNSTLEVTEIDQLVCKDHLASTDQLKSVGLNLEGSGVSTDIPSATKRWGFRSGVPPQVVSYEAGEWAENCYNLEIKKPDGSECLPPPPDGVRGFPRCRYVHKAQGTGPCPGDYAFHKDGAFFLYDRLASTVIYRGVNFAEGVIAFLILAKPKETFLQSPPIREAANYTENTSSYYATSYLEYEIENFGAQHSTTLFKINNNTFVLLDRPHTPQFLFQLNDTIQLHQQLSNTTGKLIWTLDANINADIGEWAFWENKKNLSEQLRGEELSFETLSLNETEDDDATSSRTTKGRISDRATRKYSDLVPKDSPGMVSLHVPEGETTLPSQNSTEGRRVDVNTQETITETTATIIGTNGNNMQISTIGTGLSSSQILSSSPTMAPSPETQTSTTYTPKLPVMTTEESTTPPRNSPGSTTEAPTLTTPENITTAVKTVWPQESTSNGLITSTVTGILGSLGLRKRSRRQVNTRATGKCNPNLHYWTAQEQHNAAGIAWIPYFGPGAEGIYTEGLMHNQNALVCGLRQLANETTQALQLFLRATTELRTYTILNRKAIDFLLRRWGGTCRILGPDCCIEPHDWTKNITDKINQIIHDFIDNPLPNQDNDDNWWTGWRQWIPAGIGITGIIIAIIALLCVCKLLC
Assay: ELISA
MEASURE NAME: EC50 (nM)
Just the number please, in nM, no unit attached.

Please review the entries below; each comes with its answer.
{"BINDER": "FVM08 (antibody, V domains shown) VH: EVQLVQSGAEVKRPGESLTISCKTSGYSFTDSWVAWVRQMPGKGLEWMGSIYPGDSDTRYNPSFEGQVTISADKSISTTYLQWSSLRASDTATYYCVKGADDWGQGVLVTVSS VL: QPVLTQPASLSASPGASASLTCTFSGGINVAGYNILWYQQKAGSPPRYLLRYKSDSTKDQGSGVPSRFSGSKDASANTGILRISGLQSEDEADYYCAIGHSSGWIFGGGTRLTVL", "EC50 [nM]": 0.135}
{"BINDER": "FVM35 (antibody, V domains shown) VH: EVQLVQSGAEVKRPGESLTISCKTSGYSFTSYWITWVRQMPGKGLEWLGSIYPGDSETKYNPSFQGHVTISADKSVTTTYLKWSSLKASDTATYYCVKGSETWGQGVLVTVSS VL: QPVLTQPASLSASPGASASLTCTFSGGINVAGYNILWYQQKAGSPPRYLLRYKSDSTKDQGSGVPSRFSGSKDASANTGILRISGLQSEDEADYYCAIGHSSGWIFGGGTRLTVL", "EC50 [nM]": 0.14}

stdin: I am curious: what EC50 value has been reported for FVM11 (antibody, V domains shown) VH: EVQLVQSGAEVKRPGESLTISCKTSGYSFTDSWVAWVRQMPGKGLEWLGSIYPGDSETKYNPSFQGHVTISADKSVTTTYLKWSSLKASDTATYYCVKGSETWGQGVLVTVSS VL: NFMLTQPASLSASPGASASLTCTFSGGINVAGYNILWYQQKAGSPPRYLLRYKSDSTKDQGSGVPSRFSGSKDASANTGILRISGLQSEDEADYYCAIGHSSGWIFGGGTRLTVL ?
stdout: 0.189

stdin: I am curious: what EC50 value has been reported for FVM37 (antibody, V domains shown) VH: QVQLVQSGAEVKRPGESLKISCKTSGYRFTSSWISWVRQMPGKGLEWLGSIYPGDSETKYNPSFQGHVTISADKSVTTTYLKWSSLKASDTATYYCVKGSETWGQGVLVTVSS VL: SSELTQPASLSASPGASASLTCTFSGGINVAGYNILWYQQKAGSPPRYLLRYKSDSTKDQGSGVPSRFSGSKDASANTGILRISGLQSEDEADYYCAIGHSSGWIFGGGTRLTVL ?
stdout: 0.127

stdin: I am curious: what EC50 value has been reported for FVM40 (antibody, V domains shown) VH: EVQLVQSGAEVKRPGESLTISCKTSGYSFTDSWISWVRQMPGKGLEWMGSIYPGDSETKYNPSFQGHVTISADKSVTTTYLKWSSLKASDTATYYCVKGSETWGQGVLVTVSS VL: QPMLTQPASLSASPGASASLTCTFSGGINVAGYNILWYQQKAGSPPRYLLRYKSDSTKDQGSGVPSRFSGSKDASANTGILRISGLQSEDEADYYCAIGHSSGWIFGGGTRLTVL ?
stdout: 0.113
